molecular target: MERTK (UniProt Q12866); experiment: phosphorylation enrichment, bacterial display (enrichment ratio); higher = better substrate or ligand; peptides without Tyr show the background;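 note: 11-residue human phosphosite peptides and single-mutation variants displayed on the E. coli surface, counted by deep sequencing, each peptide's frequency after selection divided by its frequency in the unselected input library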;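 note: frequency after pTyr selection over input frequency; kinase dosed for 20-30% of maximal phosphorylation in three min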
Sequence (Q12866 whole entry, looked up): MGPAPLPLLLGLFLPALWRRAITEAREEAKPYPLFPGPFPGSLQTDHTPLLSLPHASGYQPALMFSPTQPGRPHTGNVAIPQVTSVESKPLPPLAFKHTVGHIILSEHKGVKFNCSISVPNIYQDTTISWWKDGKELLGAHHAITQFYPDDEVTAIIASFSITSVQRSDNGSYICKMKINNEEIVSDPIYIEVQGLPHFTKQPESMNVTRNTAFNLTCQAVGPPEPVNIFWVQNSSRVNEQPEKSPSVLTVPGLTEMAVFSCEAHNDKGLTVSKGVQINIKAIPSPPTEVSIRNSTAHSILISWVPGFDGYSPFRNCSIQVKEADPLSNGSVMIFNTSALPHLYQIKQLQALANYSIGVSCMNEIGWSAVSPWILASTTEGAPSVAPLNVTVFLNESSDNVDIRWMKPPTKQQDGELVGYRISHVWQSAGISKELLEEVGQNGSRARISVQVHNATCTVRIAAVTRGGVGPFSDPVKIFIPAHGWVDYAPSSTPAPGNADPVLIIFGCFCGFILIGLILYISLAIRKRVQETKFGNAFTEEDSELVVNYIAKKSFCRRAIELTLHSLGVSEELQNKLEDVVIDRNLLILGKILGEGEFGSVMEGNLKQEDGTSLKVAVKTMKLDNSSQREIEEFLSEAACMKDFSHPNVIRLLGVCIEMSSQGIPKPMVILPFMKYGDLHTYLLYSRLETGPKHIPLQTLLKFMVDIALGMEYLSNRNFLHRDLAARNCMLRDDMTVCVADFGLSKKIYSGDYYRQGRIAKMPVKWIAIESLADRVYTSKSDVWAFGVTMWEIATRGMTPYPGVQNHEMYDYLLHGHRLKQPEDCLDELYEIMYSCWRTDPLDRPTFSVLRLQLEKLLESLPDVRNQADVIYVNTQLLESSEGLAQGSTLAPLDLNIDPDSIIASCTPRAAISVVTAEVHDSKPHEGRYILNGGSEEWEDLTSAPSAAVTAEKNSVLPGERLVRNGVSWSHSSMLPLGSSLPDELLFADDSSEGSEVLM
outcome-measure: phosphorylation enrichment
// return just the number, without any unit appended

LSQAKYQIRYR [CRLF1_Y272_F268S] :: 0.479
KYVKMYDNHQL [MYO9A_Y203] :: 0.544
TSSGGYRRTPS [ABI1_Y333] :: 0.467
RTVPLYESPRK [DDB1_Y718] :: 7.82
RRSQSYIPTSG [PLEKHA2_Y185] :: 0.59
EESSHYSTEKE [ADAR_Y587] :: 0.509

Give a short answer stating reported phosphorylation enrichment for HSLRDYKEALM [ADA2_Y337_H335R] .
0.649

These measurements were taken from the supplement of paper PMC10065799.
